This listing pairs molecules with measured activity change, negative = inhibition.
- Test name: qHTS assay to identify inhibitors of the type 1 interferon - major histocompatibility complex class I in skeletal muscle: Counter screen cell viability and HiBit confirmation (AID 1347412); also: % is scaled to controls: 0 for no effect and ±100 for the full control effect; nearly all actives have a fitted effect of over 60% in size
- Experimental setup: iHSKM muscle cells + IFN-b, HiBiT or CellTiter-Glo, 24 h; Viability; at 45.9 µM (top of the series)
- From the text: […]
Records with an inconclusive call do not appear. Calls of active or inactive are those of the source. Calls follow the shape of the dose curve; as a rule, active = well fitted inhibition curve with a large enough effect; inconclusive = small, poorly fitted or top-dose-only effect; inactive = no such curve, though single readings can be large or run the other way.

Example cases with answers are listed next.
C[C@H](Nc1ncnc2nc[nH]c12)c1cc2cccc(Cl)c2c(=O)n1-c1ccccc1
-19.3% (inactive)
OC(c1ccc(-c2ccc(CN3CCN(Cc4ccncc4)CC3)cc2)c(F)c1)(C(F)(F)F)C(F)(F)F
-8.6% (inactive)
Cc1[nH]c(/C=C2\C(=O)Nc3ccc(F)cc32)c(C)c1C(=O)NCCN1CCCC1
-1.6% (inactive)
NC(=O)c1cnc(N[C@@H]2CCCC[C@@H]2N)nc1Nc1cccc(-n2nccn2)c1
-17.1% (inactive)

stdin: Name the recorded activity change, negative = inhibition for `O=C1Nc2nc(-c3c(O)cccc3OCC3CC3)cc([C@@H]3CCCNC3)c2CO1` .
stdout: -25% (inactive)

stdin: Entry to check: `CC1(C)CN(C(=O)c2ccc(-c3cccc4nc(NC(=O)C5CC5)nn34)cc2)C1`
stdout: 3.01% (inactive)

stdin: Input `C=CC(=O)Nc1ccc2ncnc(Nc3cccc(Br)c3)c2c1`
stdout: -0.162% (inactive)

---

- Test name: qHTS drug screen for cell cycle checkpoint inhibitors in PARPi-resistant BRCA-mutant ovarian cancer cell lines. (AID 1963452)
- Experimental setup: PEO1/OlaR viability, CellTiter-Glo luminescence, 96 h; measured here: PEO4 Z-AUC; stronger effect = lower value
Parameter Z-AUC: see the listing below.
Answer with a number only.

Worked cases, answers included:
O=C(NC[C@H](O)CN1CCc2ccccc2C1)c1ccnc(NC2CCC2)c1
-0.212
O=C(O)C1=CO[C@@H](O[C@@H]2O[C@H](CO)[C@@H](O)[C@H](O)[C@H]2O)[C@@H]2C(CO)=CC[C@H]12
1.61
C=CC(=O)N1CCC(Oc2cc3c(Nc4ccc(Cl)c(Cl)c4F)ncnc3cc2OC)CC1
-0.834

stdin: So what does the record say about Z-AUC for `CC(C)(CNC(=O)c1cccc(-c2noc(C(F)(F)F)n2)c1)c1coc(-c2ccccc2)n1` ?
stdout: 0.975

stdin: Next up: `COCC(=O)NC/C=C/c1ccc2ncnc(Nc3ccc(Oc4ccc(C)nc4)c(C)c3)c2c1`
stdout: -0.0701

---

- System: PA-1
- Test name: Primary qHTS to identify gynecologic anti-cancer compounds using libraries of approved drugs and bioactive compounds (AID 1345084); also: % is scaled to controls: 0 for no effect and ±100 for the full control effect; nearly all actives have a fitted effect of over 55% in size
- Experimental setup: Gynecologic cancer cell panel viability, ATPlite luminescence, 48 h; series mostly up to 57.5 µM
- Excerpt: National Center for Advancing Translational Sciences [NCATS] Assay Overview: Chemotherapeutic drug responses vary from cancer to cancer and from patient to patient. […] ATPlite is a luminescence based assay reliant on the conversion of a luciferase substrate to light in the presence of ATP. As a cytotoxic compound will suppress growth and decrease the number of cells, the concentration of ATP will decrease, and less light signal will be detected in the well. […]
Results filed as inconclusive are left out. Calls of active or inactive are those of the source. Calls follow the shape of the dose curve; as a rule, active = well fitted cell-killing curve with a large enough effect; inconclusive = small, poorly fitted or top-dose-only effect, or effect the other way; inactive = flat fitted curve, though single readings scatter.
The following molecules are shown together with reported activity change, negative = cytotoxicity values.

For orientation, consider the following solved cases.
CCC/C=C/C(=O)O[C@H]1CC(C)(C)CC2[C@@]13[C@H](O)C[C@]1(C)[C@@]2(CCC2[C@@]4(C)CC[C@H](O[C@@H]5O[C@H](C(=O)O)[C@@H](O)[C@H](O[C@@H]6O[C@H](CO)[C@H](O)[C@H](O)[C@H]6O[C@@H]6O[C@@H](C)[C@H](O)[C@@H](O)[C@H]6O[C@@H]6OC[C@](O)(CO)[C@H]6O)[C@H]5O[C@@H]5O[C@H](CO)[C@H](O)[C@H](O)[C@H]5O)C(C)(C)C4CC[C@]21C)O[C@H]3O (stereo partly drawn)
-0.263% [at 6.55 µM] (inactive)
CC(=O)O[C@@H]1[C@@H](O)[C@H](O[C@@H]2[C@@H](O)[C@@H](O)[C@H](O[C@H]3[C@H](O[C@H]4[C@H](O[C@H]5CC[C@@]6(C)C(CC[C@]7(C)C6CC=C6[C@@H]8CC(C)(C)CC[C@]8(C(=O)O)CC[C@]67C)[C@]5(C)CO)O[C@H](CO)[C@@H](O)[C@@H]4O)OC[C@@H](O)[C@@H]3O)O[C@H]2C)OC[C@H]1O (stereo partly drawn)
-1.55% [at 11.6 µM] (inactive)
CC(=O)N[C@H]1[C@H](O[C@H]2CC[C@@]3(C)C(CC[C@]4(C)C3CC=C3C5CC(C)(C)CC[C@]5(C(=O)O)C(O)C[C@]34C)C2(C)C)O[C@H](CO[C@@H]2O[C@H](C)[C@H](O)[C@H](O)[C@H]2O[C@@H]2OC[C@@H](O)[C@H](O)[C@H]2O)[C@@H](O)[C@@H]1O (stereo partly drawn)
4.44% [at 11.6 µM] (inactive)
CC1OC(OC2C(O)COC(O[C@@H]3[C@@H](O)[C@@H](O)[C@H](OC4C(OC(=O)[C@]56CCC(C)(C)CC5C5=CCC7[C@@]8(C)C[C@H](O)[C@H](OC9OC(CO)C(O)C(O)C9O)[C@@](C)(CO)C8[C@H](O)C[C@@]7(C)[C@]5(C)CC6)OCC(O)C4O)O[C@H]3C)C2O)C(O)C(O)C1O (stereo partly drawn)
0.113% [at 6.55 µM] (inactive)
COc1ccc(CN2CCN(CCCSc3cc(C(C)(C)C)c(O)c(C(C)(C)C)c3)CC2)c(OC)c1OC
1.3% [at 11.6 µM] (inactive)

stdin: So what does the record say about activity change, negative = cytotoxicity for CC(=O)O[C@@H]1C[C@]2(C)[C@@]3(CCC4[C@@]5(C)CC[C@H](O[C@@H]6O[C@H](C(=O)O)[C@@H](O)[C@H](OC7OC(CO)C(O)C(O)[C@H]7O[C@@H]7O[C@@H](C)[C@H](O)[C@@H](O)[C@H]7O[C@@H]7OC[C@](O)(CO)[C@H]7O)[C@H]6OC6OC(CO)C(O)C(O)C6O)C(C)(C)C5CC[C@]42C)OC[C@@]12CCC(C)(C)CC23 (stereo partly drawn) ?
stdout: -13% [at 6.55 µM] (inactive)

stdin: Also check CCC(C)C(=O)O[C@H]1[C@H](O)[C@@]2(COC(C)=O)C(CC1(C)C)C1=CCC3[C@@]4(C)CC[C@H](O[C@@H]5O[C@H](C(=O)O)[C@@H](O)[C@H](O)[C@H]5O)[C@@](C)(CO)C4CC[C@@]3(C)[C@]1(C)C[C@@H]2O (stereo partly drawn)
stdout: 5.51% [at 11.6 µM] (inactive)

stdin: Also need CC(=O)OC1CC(C)(C(=O)O)CC2C3=CC(=O)C4C5(C)CCC(OC6OC(C(=O)O)C(O)C(O)C6OC6OC(C(=O)O)C(O)C(O)C6O)C(C)(C)C5CCC4(C)C3(C)CCC12C (stereo not drawn) , thanks.
stdout: 22.8% [at 11.6 µM] (inactive)
